This collection of values is drawn from paper PMC10397247.

As shown below, each of these binders has a reported interaction score value.
# Assay System: T1, 4H881-AA
# T1 chain: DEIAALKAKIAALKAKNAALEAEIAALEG
# Test Method Notes: two-hybrid library CCmax;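 also: natural log of median RNA to DNA barcode read ratio; higher means stronger binding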
# Stated Conditions: mean of both orientations

Binder	interaction score
DKNAALKAEIAALKAEIAALEAKNAALEG [4H3655-AA]	-0.202
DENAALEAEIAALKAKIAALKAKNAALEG [4H1135-AA]	-1.61
DKIAALKAKIAALKAEIAALEAENAALEG [4H2883-AA]	-0.297
DEIAALEAKIAALKAENAALEAKIAALKG [4H342-AA]	2.49
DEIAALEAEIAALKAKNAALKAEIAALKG [4H122-AA]	1.43
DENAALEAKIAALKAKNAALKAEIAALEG [4H1401-AA]	-0.879
DENAALEAEIAALEAKNAALKAKIAALKG [4H1086-AA]	1.89
